human estrogen receptor α (Homo sapiens) data, read-out IC50
Sequence (P03372 whole entry): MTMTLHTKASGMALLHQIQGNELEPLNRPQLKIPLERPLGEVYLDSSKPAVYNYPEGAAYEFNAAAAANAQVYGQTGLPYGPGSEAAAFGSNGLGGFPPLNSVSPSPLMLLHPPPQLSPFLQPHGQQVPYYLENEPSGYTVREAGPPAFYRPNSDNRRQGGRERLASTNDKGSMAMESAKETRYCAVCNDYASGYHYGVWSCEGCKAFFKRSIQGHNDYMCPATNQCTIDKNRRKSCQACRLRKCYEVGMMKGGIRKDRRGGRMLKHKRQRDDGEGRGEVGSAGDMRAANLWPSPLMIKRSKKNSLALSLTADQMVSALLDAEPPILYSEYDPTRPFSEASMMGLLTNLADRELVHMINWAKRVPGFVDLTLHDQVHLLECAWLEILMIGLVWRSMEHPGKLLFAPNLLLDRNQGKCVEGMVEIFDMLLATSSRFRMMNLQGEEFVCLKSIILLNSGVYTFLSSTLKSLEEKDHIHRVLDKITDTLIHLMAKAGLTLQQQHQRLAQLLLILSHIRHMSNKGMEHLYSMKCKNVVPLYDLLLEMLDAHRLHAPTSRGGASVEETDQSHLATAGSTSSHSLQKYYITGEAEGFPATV
assay_endpoint: IC50 (nM)

{"columns": ["compound", "censoring_operator", "recorded_measurement"],
 "data": [
  ["Oc1cccc(C2COc3cc(O)ccc3N(Cc3cccc(OCCCl)c3)C2)c1 (stereo not drawn)", "=", 56],
  ["Oc1ccc(C2COc3cc(O)ccc3N(Cc3cccc(OCCN4CCCCC4)c3)C2)cc1 (stereo not drawn)", "=", 52],
  ["CN(C)CCOc1ccc(C(=O)N2CC(c3cccc(O)c3)COc3cc(O)ccc32)cc1 (stereo not drawn)", "=", 530],
  ["COCOc1ccc(C2COc3cc(OCOC)ccc3N(Cc3cccc(OCCN4CCCCC4)c3)C2)cc1 (stereo not drawn)", ">", 1000],
  ["O=C(c1ccc(OCCCl)cc1)N1CC(c2cccc(O)c2)COc2cc(O)ccc21 (stereo not drawn)", "=", 24],
  ["Oc1cccc(C2COc3cc(O)ccc3N(Cc3cccc(OCCN4CCCCC4)c3)C2)c1 (stereo not drawn)", "=", 22],
  ["COCOc1ccc(C2COc3cc(OCOC)ccc3N(Cc3cccc(OCCN4CCOCC4)c3)C2)cc1 (stereo not drawn)", ">", 1000],
  ["CC(C)(C)C(=O)Oc1ccc(C2COc3cc(OC(=O)C(C)(C)C)ccc3N(Cc3cccc(OCCN4CCCCC4)c3)C2)cc1 (stereo not drawn)", ">", 1000],
  ["COc1cccc(C2COc3cc(OC)ccc3N(C(=O)c3ccc(OCCN(C)C)cc3)C2)c1 (stereo not drawn)", "=", 2900]
]}

* * *

pIC50: −log10 of the molar value.
Assay read-out pIC50; system under study: hER-β (Homo sapiens).
assay_endpoint: pIC50

{"columns": ["compound", "censoring_operator", "recorded_measurement"],
 "data": [
  ["O=C(c1ccc(OCCCl)cc1)N1CC(c2cccc(O)c2)COc2cc(O)ccc21 (stereo not shown)", "=", 5.96],
  ["COCOc1ccc(C2COc3cc(OCOC)ccc3N(Cc3cccc(OCCCl)c3)C2)cc1 (stereo not shown)", "<", 6.00],
  ["COCOc1ccc(C2COc3cc(OCOC)ccc3N(Cc3cccc(OCCN4CCOCC4)c3)C2)cc1 (stereo not shown)", "<", 6.00],
  ["Oc1ccc(C2COc3cc(O)ccc3N(Cc3cccc(OCCN4CCOCC4)c3)C2)cc1 (stereo not shown)", "=", 6.06]
]}

* * *

hER-β (Homo sapiens, UniProt Q92731): recorded IC50 for assorted compounds
Sequence (Q92731 whole entry): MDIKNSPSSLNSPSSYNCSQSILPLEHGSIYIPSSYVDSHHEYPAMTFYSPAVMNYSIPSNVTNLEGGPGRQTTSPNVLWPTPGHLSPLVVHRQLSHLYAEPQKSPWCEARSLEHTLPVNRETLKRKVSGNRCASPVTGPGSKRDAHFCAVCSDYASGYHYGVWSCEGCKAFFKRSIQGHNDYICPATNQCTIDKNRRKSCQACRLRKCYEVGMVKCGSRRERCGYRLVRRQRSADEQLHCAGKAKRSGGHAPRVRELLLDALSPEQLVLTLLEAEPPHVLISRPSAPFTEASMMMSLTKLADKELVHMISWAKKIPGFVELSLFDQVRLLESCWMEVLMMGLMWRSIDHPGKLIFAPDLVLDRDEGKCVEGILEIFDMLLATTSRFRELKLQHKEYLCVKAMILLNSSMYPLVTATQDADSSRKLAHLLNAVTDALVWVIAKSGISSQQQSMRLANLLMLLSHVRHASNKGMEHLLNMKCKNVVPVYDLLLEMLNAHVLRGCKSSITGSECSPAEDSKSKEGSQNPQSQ

{"columns": ["compound", "unit_text", "censoring_operator", "IC50"],
 "data": [
  ["Oc1cccc(C2COc3cc(O)ccc3N(Cc3cccc(OCCN4CCCCC4)c3)C2)c1 (stereo not drawn)", "nM", "=", 300],
  ["COc1cccc(C2COc3cc(OC)ccc3N(C(=O)c3ccc(OCCN(C)C)cc3)C2)c1 (stereo not drawn)", "nM", ">", 100000],
  ["Oc1ccc(C2COc3cc(O)ccc3N(Cc3ccc(OCCN4CCCCC4)cc3)C2)cc1 (stereo not drawn)", "nM", "=", 1100]
]}
